The measured values listed here are drawn from ChEMBL document CHEMBL4680257.

test system: L02; experiment: Cytotoxicity against human L02 cells assessed as reduction in cell viability incubated for 24 hrs by MTT assay; assay type: cell-based; details: L02, 24 h
Attribute: pIC50
Reminder that pIC50 is minus the log10 of a molar concentration.

The examples below pair each entry with its known result.
Compound	Target or test system	Experimental endpoint	Recorded result
Cc1ccc(S(=O)(=O)N2CC3=C(NC(N)=NC3c3cccc(F)c3)/C(=C/c3cccc(F)c3)C2)cc1.Cl (stereo not drawn)	L02	pIC50	4.95
Cl.NC1=NC(c2cccc(F)c2)C2=C(N1)/C(=C/c1cccc(F)c1)CN(S(=O)(=O)c1ccc(Br)cc1)C2 (stereo not drawn)	L02	pIC50	5.00
Cc1ccc(S(=O)(=O)N2CC3=C(NC(N)=NC3c3ccc(F)cc3)/C(=C/c3ccc(F)cc3)C2)cc1.Cl (stereo not drawn)	L02	pIC50	4.75
CC(=O)Nc1ccc(S(=O)(=O)N2C/C(=C\c3cccc(F)c3)C(=O)/C(=C/c3cccc(F)c3)C2)cc1	L02	pIC50	4.76
O=C1/C(=C/c2ccccc2F)CN(S(=O)(=O)c2ccc(F)cc2)C/C1=C\c1ccccc1F	L02	pIC50	4.76
N#Cc1ccc(S(=O)(=O)N2C/C(=C\c3cccc(F)c3)C(=O)/C(=C/c3cccc(F)c3)C2)cc1	L02	pIC50	4.81
Cl.NC1=NC(c2ccccc2F)C2=C(N1)/C(=C/c1ccccc1F)CN(S(=O)(=O)c1ccc(F)cc1)C2 (stereo not drawn)	L02	pIC50	4.78

Shift focus to the following entry.
Could you tell me which pIC50 is on file for CC(=O)Nc1ccc(S(=O)(=O)N2CC3=C(NC(N)=NC3c3ccccc3F)/C(=C/c3ccccc3F)C2)cc1.Cl (stereo not drawn) ?
4.95

* * *

IC50 by entry:
test system: L02; test: Cytotoxicity against human L02 cells assessed as reduction in cell viability incubated for 24 hrs by MTT assay; format: cell-based; details: L02, 24 h
# unit: µM | format: bare number

Compound	Value unit	Recorded result
O=C1/C(=C/c2cccc(F)c2)CN(S(=O)(=O)c2ccccc2)C/C1=C\c1cccc(F)c1	µM	16.2
O=C1/C(=C/c2ccccc2F)CN(S(=O)(=O)c2ccc([N+](=O)[O-])cc2)C/C1=C\c1ccccc1F	µM	15.5
O=C1/C(=C/c2ccccc2F)CN(S(=O)(=O)c2ccc(Br)cc2)C/C1=C\c1ccccc1F	µM	16.2

Record request: IC50 value, item Cl.NC1=NC(c2ccccc2F)C2=C(N1)/C(=C/c1ccccc1F)CN(S(=O)(=O)c1ccc(Br)cc1)C2 (stereo unspecified)
19.5

Give the measured IC50 of Cl.NC1=NC(c2ccccc2F)C2=C(N1)/C(=C/c1ccccc1F)CN(S(=O)(=O)c1ccc([N+](=O)[O-])cc1)C2 (stereo unspecified) .
12.4

Request the reported IC50 associated with O=C1/C(=C/c2cccc(F)c2)CN(S(=O)(=O)c2ccc(Br)cc2)C/C1=C\c1cccc(F)c1
15.8

Look up IC50 for this compound: O=C1/C(=C/c2ccc(F)cc2)CN(S(=O)(=O)c2ccc(Br)cc2)C/C1=C\c1ccc(F)cc1
16.4

# input compound: O=C1/C(=C/c2cccc(F)c2)CN(S(=O)(=O)c2ccc(Cl)cc2)C/C1=C\c1cccc(F)c1 ; wanted: its IC50
15.7

Value lookup for IC50; key = O=C1/C(=C/c2ccc(F)cc2)CN(S(=O)(=O)c2ccc(Cl)cc2)C/C1=C\c1ccc(F)cc1
15.5
